# subject of test: T1, human glycophorin A in the red blood cell membrane (human, UniProt P02724 20-150)
# T1 construct: whole, on cells; used for intact RBC, isolated RBC membranes and transfected cells; the assay field tells which; also called GPA; hGPA
# T1 sequence (looked up): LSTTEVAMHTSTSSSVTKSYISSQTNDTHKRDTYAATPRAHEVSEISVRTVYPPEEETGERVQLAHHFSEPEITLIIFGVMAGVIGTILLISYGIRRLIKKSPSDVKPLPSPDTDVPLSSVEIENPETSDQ
# procedure details: ELISA, human RBC membranes;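 note: antibodies bound to isolated human red blood cell membrane ghosts coated on 96-well plates, tested 1.5 h at room temperature, bound antibody quantified with a detection antibody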
experimental endpoint: binding by ELISA relative to parental
// return a plain number; no unit text

Look over these answered cases.
| binder | binding by ELISA relative to parental |
| --- | --- |
| TPP-5341 (Fab, V domains shown, also called VL: (A26S)) VH: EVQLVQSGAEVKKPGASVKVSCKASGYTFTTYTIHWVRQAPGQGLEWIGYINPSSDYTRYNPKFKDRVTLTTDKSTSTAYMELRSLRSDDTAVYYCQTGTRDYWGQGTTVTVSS VL: DIQLTQSPSFLSASVGDRVTITCSASSSVSYIYWFQQKPGKAPKLLIYSTSTLPSGVPSRFSGSGSGTEYTLTISSLQPEDFATYYCHQRNSFPFTFGQGTKLEIKR | 0.82 |
| TPP-5320 (Fab, V domains shown, also called VH: (I48M)) VH: EVQLVQSGAEVKKPGASVKVSCKASGYTFTTYTIHWVRQAPGQGLEWMGYINPSSDYTRYNPKFKDRVTLTTDKSTSTAYMELRSLRSDDTAVYYCQTGTRDYWGQGTTVTVSS VL: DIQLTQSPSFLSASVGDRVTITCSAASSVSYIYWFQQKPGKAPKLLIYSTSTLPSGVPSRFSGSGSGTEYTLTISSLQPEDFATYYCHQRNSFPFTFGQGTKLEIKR | 0.99 |

We now examine a further binder.
What does the record list as binding by ELISA relative to parental for TPP-5317 (Fab, V domains shown, also called VH: (T31S)) VH: EVQLVQSGAEVKKPGASVKVSCKASGYTFTSYTIHWVRQAPGQGLEWIGYINPSSDYTRYNPKFKDRVTLTTDKSTSTAYMELRSLRSDDTAVYYCQTGTRDYWGQGTTVTVSS VL: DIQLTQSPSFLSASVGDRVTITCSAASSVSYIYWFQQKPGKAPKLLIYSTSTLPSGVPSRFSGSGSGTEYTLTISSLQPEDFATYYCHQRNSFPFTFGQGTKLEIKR ? 0.68
